// reported TGI per item
System: HOP-62 NSCLC
Test: NCI tumour cell line growth inhibition, 48 h

Illustrative cases are given below, each with its answer.
INSERT INTO measurements (compound, target, resulttype, result) VALUES
  ('CNc1nc2c(C)ccc3nc(N(C)C)nc-3c2n1C', 'HOP-62 NSCLC', 'TGI', '> 10 µM'),
  ('O=c1oc2ccccc2cc1-c1ccc([N+](=O)[O-])cc1', 'HOP-62 NSCLC', 'TGI', '> 100 µM'),
  ('Cc1cc(N(CCC#N)CCC#N)ccc1N=Nc1ccccc1[N+](=O)[O-]', 'HOP-62 NSCLC', 'TGI', '> 100 µM');

Tested on HOP-62 NSCLC: COP(=N[Si](C)(C)C)(OC)OC . Observed TGI: > 100 µM

Lab note: compound C(=C\c1ccccc1)/Cn1nc(-c2ccccc2)nc1-c1cnccn1 tested on HOP-62 NSCLC; recorded TGI was > 100 µM

Entry CN(C)c1ccc(/C=C(\NC(=O)c2ccccc2)c2nc3ccccc3c(=O)o2)cc1 under HOP-62 NSCLC had TGI of > 100 µM
